Property: drug sensitivity score; scope: individual compounds
system: CAF#3 (primary prostate cancer-associated fibroblasts of myCAF-like type); assay: drug sensitivity score (DSS2, normalised partial AUC of dose-response, 72 h CellTiter-Glo viability) (DSS (dimensionless)); higher = more sensitive (stronger growth inhibition / cytotoxicity); extreme values may be limits of the assay
Just the number, please, no unit attached.

Recorded drug sensitivity score, per entry:
{"Compound": "Cc1c(N)nc([C@H](CC(N)=O)NC[C@H](N)C(N)=O)nc1C(=O)N[C@H](C(=O)N[C@H](C)[C@@H](O)[C@H](C)C(=O)N[C@H](C(=O)NCCc1nc(-c2nc(C(=O)NCCC[S+](C)C)cs2)cs1)[C@@H](C)O)[C@@H](OC1OC(CO)C(O)C(O)C1OC1OC(CO)C(O)C(OC(N)=O)C1O)c1cnc[nH]1 (stereo not given in full) [Bleomycin] (tested concentration range 1-10000 nM)", "drug sensitivity score": 5.7}
{"Compound": "O=C(c1cccc(Cl)c1F)N1CCN(Cc2cccc(Nc3nccs3)n2)CC1 [MK-8745] (tested concentration range 1-10000 nM)", "drug sensitivity score": 6.8}
{"Compound": "Cc1ccc(NC(=O)c2ccc(CN3CCN(C)CC3)cc2)cc1Nc1nccc(-c2cccnc2)n1 [Imatinib] (tested concentration range 1-10000 nM)", "drug sensitivity score": 1.7}
{"Compound": "O=C(O)CNC(=O)c1c(O)c2ccccc2n(Cc2ccccc2)c1=O [IOX-2] (tested concentration range 2.5-25000 nM)", "drug sensitivity score": 0}

# context switch: different compound, same drug sensitivity score
INPUT: Could you share what drug sensitivity score was measured for CCCS(=O)(=O)Nc1ccc(F)c(C(=O)c2c[nH]c3ncc(-c4ccc(Cl)cc4)cc23)c1F [Vemurafenib] (tested concentration range 1-10000 nM) , tested on CAF#3?
OUTPUT: 4.4

* * *

system: CAF#7 (primary prostate cancer-associated fibroblasts of myCAF-like type); assay: drug sensitivity score (DSS2, normalised partial AUC of dose-response, 72 h CellTiter-Glo viability) (DSS (dimensionless)); higher = more sensitive (stronger growth inhibition / cytotoxicity); extreme values may be limits of the assay
Measured Attribute: drug sensitivity score
Just the number, please, no unit attached.

Recorded drug sensitivity score, per entry:
{"Molecule": "Cc1ncc(Cl)cc1NCc1ccc(C(=O)N[C@@H](CC2CCCC2)C(=O)NC2CC2)s1 (tested concentration range 0.5-5000 nM)", "Val": 1.2}
{"Molecule": "Cn1ncc(Cl)c1-c1cc(C(=O)N[C@H](CN)Cc2cccc(F)c2)sc1Cl [Afuresertib] (tested concentration range 0.1-1000 nM)", "Val": 0}
{"Molecule": "Cc1cc(Nc2cc(N3CCN(C)CC3)nc(Sc3ccc(NC(=O)C4CC4)cc3)n2)n[nH]1 [Tozasertib] (tested concentration range 1-10000 nM)", "Val": 4.7}
{"Molecule": "O=C(Nc1cccnc1)N1CCC(Cc2cccc(Oc3ccc(C(F)(F)F)cn3)c2)CC1 [PF-3845] (tested concentration range 1-10000 nM)", "Val": 0}
{"Molecule": "Cc1cn(-c2cc(NC(=O)c3ccc(C)c(Nc4nccc(-c5cnccn5)n4)c3)cc(C(F)(F)F)c2)cn1 [Radotinib] (tested concentration range 1-10000 nM)", "Val": 0}

INPUT: Which drug sensitivity score value belongs to COc1cc2nccc(Oc3ccc(NC(=O)Nc4cc(C)on4)c(Cl)c3)c2cc1OC [Tivozanib] (tested concentration range 1-10000 nM) ?
OUTPUT: 6

INPUT: Which drug sensitivity score value belongs to CCN1CCN(Cc2ccc(Nc3ncc(F)c(-c4cc(F)c5nc(C)n(C(C)C)c5c4)n3)nc2)CC1 [Abemaciclib] (tested concentration range 0.2-2500 nM) ?
OUTPUT: 0

INPUT: Which drug sensitivity score value belongs to CC[C@]1(O)C[C@H]2CN(CCc3c([nH]c4ccccc34)[C@@](C(=O)OC)(c3cc4c(cc3OC)N(C=O)[C@H]3[C@@](O)(C(=O)OC)[C@H](OC(C)=O)[C@]5(CC)C=CCN6CC[C@]43[C@@H]65)C2)C1 [Vincristine] (tested concentration range 0.1-1000 nM) ?
OUTPUT: 11.5

* * *

tested on: CAF#4 (primary prostate cancer-associated fibroblasts of iCAF-like type); assay: drug sensitivity score (DSS2, normalised partial AUC of dose-response, 72 h CellTiter-Glo viability) (DSS (dimensionless)); higher = more sensitive (stronger growth inhibition / cytotoxicity); extreme values may be limits of the assay
Threshold rule: drug sensitivity score greater than or equal to 0.5 is yes (1); below that, no (0).

A selection of reference data follows.
{"Compound": "Cc1cc2c(F)c(Oc3ncnn4cc(OC[C@@H](C)O)c(C)c34)ccc2[nH]1 [Brivanib] (tested concentration range 0.1-1000 nM)", "Label Value": "no (0)"}
{"Compound": "C[C@H]1C[C@@H](n2c(Nc3ccc(OC(F)(F)F)cc3)nc3cc(CCC(=O)O)ccc32)CC(C)(C)C1 (tested concentration range 1-10000 nM)", "Label Value": "no (0)"}
{"Compound": "COC(=O)C[C@](O)(CCCC(C)(C)O)C(=O)O[C@@H]1C(OC)=C[C@]23CCCN2CCc2cc4c(cc2[C@H]13)OCO4 [Omacetaxine] (tested concentration range 1-10000 nM)", "Label Value": "yes (1)"}
{"Compound": "COc1cc(OC2CCN(C)CC2)ccc1Nc1ncc2c(n1)n(C1CCCC1)c(=O)n2C [AZ 3146] (tested concentration range 1-10000 nM)", "Label Value": "yes (1)"}
{"Compound": "O=C1CCc2c(Oc3ccc4c(c3)[C@@H]3[C@H](O4)[C@H]3c3nc4cc(C(F)(F)F)ccc4[nH]3)ccnc2N1 [Lifirafenib] (tested concentration range 1-10000 nM)", "Label Value": "yes (1)"}

Then there is this compound:
INPUT: Please tell me: is the compound CN(Cc1cnc2nc(N)nc(N)c2n1)c1ccc(C(=O)N[C@@H](CCC(=O)O)C(=O)O)cc1 [Methotrexate] (tested concentration range 0.5-5000 nM) at or over 0.5 in terms of drug sensitivity score?
OUTPUT: yes (1)

* * *

Property: drug sensitivity score; scope: individual compounds
system: CAF#7; test: drug sensitivity score (DSS2, normalised partial AUC of dose-response, 72 h CellTiter-Glo viability) (DSS (dimensionless)); higher = more sensitive (stronger growth inhibition / cytotoxicity); extreme values may be limits of the assay
Just the number, please, no unit attached.

{"Compound": "CC(C)N(CCCNC(=O)Nc1ccc(C(C)(C)C)cc1)C[C@H]1O[C@@H](n2cc(Br)c3c(N)ncnc32)[C@H](O)[C@@H]1O [SGC0946] (tested concentration range 1-10000 nM)", "Measured Attribute": "drug sensitivity score", "Val": 1.2}
{"Compound": "Nc1nc(F)nc2c1ncn2[C@@H]1O[C@H](CO)[C@@H](O)[C@@H]1O [Fludarabine] (tested concentration range 1-10000 nM)", "Measured Attribute": "drug sensitivity score", "Val": 2.1}

# context switch: different compound, same drug sensitivity score
INPUT: Which drug sensitivity score value belongs to Cc1[nH]c2ccccc2c1CCNCc1ccc(/C=C/C(=O)NO)cc1 [Panobinostat] (tested concentration range 0.1-1000 nM) ?
OUTPUT: 7.9

* * *

test system: CAF#2 (primary prostate cancer-associated fibroblasts of iCAF-like type); assay: drug sensitivity score (DSS2, normalised partial AUC of dose-response, 72 h CellTiter-Glo viability) (DSS (dimensionless)); higher = more sensitive (stronger growth inhibition / cytotoxicity); extreme values may be limits of the assay
Threshold rule: drug sensitivity score greater than or equal to 2 is T; below that, F.

{"Molecule": "CCc1cnn2c(NCc3ccc[n+]([O-])c3)cc(N3CCCC[C@H]3CCO)nc12 [Dinaciclib] (tested concentration range 0.1-1000 nM)", "Label Value": "T"}
{"Molecule": "O=C(O)C(=O)O.[NH-][C@@H]1CCCC[C@H]1[NH-].[Pt+2] [Oxaliplatin] (tested concentration range 10-100000 nM)", "Label Value": "T"}

INPUT: Please tell me: is the molecule C/C(=C\c1csc(C)n1)[C@@H]1C[C@@H]2O[C@]2(C)CCC[C@H](C)[C@H](O)[C@@H](C)C(=O)C(C)(C)[C@@H](O)CC(=O)N1 [Ixabepilone] (tested concentration range 0.1-1000 nM) at or over 2 in terms of drug sensitivity score?
OUTPUT: T

INPUT: Please tell me: is the molecule Nc1nc2cc(-c3ccc4ncc(C(=O)N5CCOCC5)n4c3)ccc2o1 [Serabelisib] (tested concentration range 1-10000 nM) at or over 2 in terms of drug sensitivity score?
OUTPUT: T

INPUT: Please tell me: is the molecule C[C@@H]1CN(CC(=O)Nc2ccc3c(c2)Cc2cccc(-c4cc(=O)cc(N5CCOCC5)o4)c2S3)C[C@H](C)O1 (tested concentration range 2.5-25000 nM) at or over 2 in terms of drug sensitivity score?
OUTPUT: F

INPUT: Please tell me: is the molecule Oc1ncnc2[nH]ncc12 [Allopurinol] (tested concentration range 1-10000 nM) at or over 2 in terms of drug sensitivity score?
OUTPUT: F

INPUT: Please tell me: is the molecule CCN(CC)CCCC(C)Nc1c2ccc(Cl)cc2nc2ccc(OC)cc12 (configuration not stated) [Mepacrine] (tested concentration range 5-50000 nM) at or over 2 in terms of drug sensitivity score?
OUTPUT: T

INPUT: Please tell me: is the molecule CC(C)C[C@H](NC(=O)[C@H](Cc1ccccc1)NC(=O)c1cnccn1)B(O)O [Bortezomib] (tested concentration range 0.1-1000 nM) at or over 2 in terms of drug sensitivity score?
OUTPUT: T

The values you see were collected from the supplement of paper PMC12592484.
